I'd be grateful if you could share measured RP-LC retention time for these entries.
test: gradient 5% acetonitrile 3 min, to 50% in 2 min, to 85% in 15 min, held 3 min, 100 µL/min; conditions: column: Zorbax Extend-C18 2.1 x 50 mm; eluents: water / acetonitrile, 0.1% formic acid
One number for each entry, in s.

Some solved cases for reference:
Cc1cccc(CNC(=O)CN2CCN(Cc3ccc(F)cc3)C2=O)c1    831
Cn1nc(-c2nc(C3CC3)no2)c2c1CCN(S(=O)(=O)c1cccc(Cl)c1)C2    1000
O=C(NCc1ccc(F)cc1F)C1CCN(c2nnc(-c3ccccc3)o2)CC1    816
Cc1ccc(-c2noc(Cc3nnc(-c4ccc(F)cc4)o3)n2)cc1C    1120
CCCn1cc(S(=O)(=O)Nc2cc(F)cc(F)c2)c2cccnc21    890
Cc1ccn2cc(-c3ccc(NS(=O)(=O)c4ccc(Br)cc4)cc3)nc2n1    689
CCn1c(=O)c(C)nc2cc(-c3noc(-c4ccccc4C)n3)ccc21    1190
Cc1ccc(C)c(-n2ccn(Cc3nc(-c4ccc(F)c(Cl)c4)no3)c(=O)c2=O)c1    1010

// moving on: another record for RP-LC retention time
Ask | // query RP-LC retention time value for entry `CCCOc1ccccc1C(=O)Nc1nonc1-c1ccccc1`
Reply | 991

###

I'd be grateful if you could share measured RP-LC retention time for these entries.
assay: gradient 5% acetonitrile 3 min, to 50% in 2 min, to 85% in 15 min, held 3 min, 100 µL/min; details: column: Zorbax Extend-C18 2.1 x 50 mm; eluents: water / acetonitrile, 0.1% formic acid
One number for each entry, in s.

Some solved cases for reference:
CCc1ccc(OC(C)C(=O)N(Cc2ccc(C)o2)C2CCS(=O)(=O)C2)cc1 (stereo not given)    984
CC1=NS(=O)(=O)N(C)C=C1C(=O)OCc1nc(Cc2ccc(C)cc2)no1    956
O=C(Nc1ccc2cn[nH]c2c1)C1c2ccccc2Oc2ccccc21    795
O=C(NCC1(N2CCOCC2)CCOC1)Nc1cc(Cl)cc(Cl)c1 (stereo not given)    657
Cc1ccc(F)c(-n2nnc(C(=O)O)c2C)c1    689

Record RP-LC retention time for all entries; do not skip any.
1. Cc1cc(C(=O)NCc2cccc(F)c2)nc2cc(-c3cccs3)nn12
2. Cc1cc(C)c2c(N3CCCC3)nc(C(=O)NCc3cccnc3)nc2n1
3. COc1cc(NC(=O)Cn2c(=O)nc(N3CCC(C)CC3)c3ccccc32)cc(OC)c1
4. O=C(NC1CCN(c2ccc(N3CCCCCC3)nn2)CC1)c1ccc(F)c(F)c1
5. COc1ccc2[nH]c(=O)c(CCC(=O)NCc3ccc(OC)c(OC)c3)cc2c1

Reply |
1090
537
798
682
648

###

assay: gradient 5% acetonitrile 3 min, to 50% in 2 min, to 85% in 15 min, held 3 min, 100 µL/min; conditions: column: Zorbax Extend-C18 2.1 x 50 mm; eluents: water / acetonitrile, 0.1% formic acid
quantityName: RP-LC retention time (s)
Answers are plain numbers, in s.

Some solved cases for reference:
CCOc1ccc(-c2noc(CN3C(=O)COc4cc(Cl)ccc43)n2)cc1OC    1080
O=C(Cc1ccccc1Cl)N1CCCC1c1nc(-c2ccccc2)no1 (centres undefined)    1020
CCOC(=O)c1c(S(=O)(=O)N2CCC(C(=O)NCc3cccc(OC)c3)CC2)c(C)n(C)c1C    772
CCN(CC)C(=O)c1ccc2c(c1)N(CC(=O)NCc1ccccn1)C(=O)CO2    594
O=C(CN1CCN(Cc2ccc(F)cc2)C1=O)NCc1ccc(N2CCCC2)cc1    761
Cc1nc(-c2csc(S(=O)(=O)N3CCCC(C(=O)NCc4ccc(N(C)C)cc4)C3)c2)no1 (centres undefined)    686
Cc1ccccc1N1CCN(c2nccn3nc(-c4ccccc4)cc23)CC1    1300
CCS(=O)(=O)c1nc2ccc(NS(=O)(=O)c3ccc4c(c3)CCCC4)cc2s1    1010
O=C(c1ccncc1)N1CCN(c2cc(-c3cccs3)[nH]n2)CC1    619
CCN(CC)C(=O)COc1ccc(NC(=O)C2CC2)cn1    664

Record RP-LC retention time for all entries; do not skip any.
1. Cc1cccc(N2C(=O)N(Cc3cccc(F)c3)S(=O)(=O)c3cccnc32)c1
2. CCn1c(C(=O)NCCCN2CCOCC2)c(N2CCCC2=O)c2cc(F)ccc21
3. Cc1cc2c(c(=O)n(-c3ccc(F)cc3)c(=O)n2CC(=O)Nc2ccc(F)c(Cl)c2)n1C
4. COc1ccc(-c2nc(C3CC(=O)N(c4ccc(F)cc4)C3)no2)c(OC)c1 (centres undefined)
5. Cc1ccn(C(=O)c2ccc(NC(=O)CC(C)C)cc2)n1
6. O=C(COc1ccccc1)OCc1nc2ccccc2s1

Reply |
[1090, 624, 854, 898, 804, 929]

Record RP-LC retention time for all entries; do not skip any.
1. Cc1cc(OCC(=O)Nc2ccc(C#N)cc2)nc(N2CCN(c3ccccc3)CC2)n1
2. Cc1ccc(C(=O)N2CCN(S(=O)(=O)c3cc(-c4noc(C5CCC5)n4)cs3)CC2)s1
3. O=C(Nc1nccs1)C1CCCN(c2ccc3cc(S(=O)(=O)N4CCCC4)ccc3n2)C1 (centres undefined)

Reply |
1: 802; 2: 1060; 3: 693
